# testTarget: IKKε (Homo sapiens)
# Construct: His-tag; made in house; host or cells: Sf9 insect cells
# Sequence (Q14164 whole entry): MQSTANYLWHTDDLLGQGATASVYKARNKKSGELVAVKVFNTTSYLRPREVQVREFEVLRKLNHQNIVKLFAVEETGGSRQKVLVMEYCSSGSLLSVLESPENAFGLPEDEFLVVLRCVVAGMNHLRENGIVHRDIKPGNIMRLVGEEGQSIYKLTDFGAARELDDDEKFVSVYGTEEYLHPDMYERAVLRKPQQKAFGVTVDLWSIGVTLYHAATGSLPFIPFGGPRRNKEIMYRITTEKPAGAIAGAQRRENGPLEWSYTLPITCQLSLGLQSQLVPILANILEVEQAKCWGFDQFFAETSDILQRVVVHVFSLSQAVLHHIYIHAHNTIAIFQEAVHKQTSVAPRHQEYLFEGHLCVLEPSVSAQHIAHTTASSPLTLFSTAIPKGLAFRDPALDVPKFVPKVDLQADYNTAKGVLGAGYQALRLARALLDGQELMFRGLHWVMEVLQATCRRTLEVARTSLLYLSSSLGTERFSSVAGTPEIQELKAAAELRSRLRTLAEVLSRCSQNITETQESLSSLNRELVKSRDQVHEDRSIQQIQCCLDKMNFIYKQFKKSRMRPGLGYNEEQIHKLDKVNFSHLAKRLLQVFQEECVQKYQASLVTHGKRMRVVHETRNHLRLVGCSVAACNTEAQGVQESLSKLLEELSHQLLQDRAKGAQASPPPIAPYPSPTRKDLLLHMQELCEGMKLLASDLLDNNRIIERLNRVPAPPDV
# method: In-vitro IKKε kinase assay ([γ33]ATP filter-plate)
# Assay type: biochemical
# condition: Table 3; read-out: IKKε IC50
quantityName: IC50 (pM)

{"columns": ["compoundSmiles", "quantityName", "unitOfMeasure", "val"],
 "data": [
  ["COCCNC(=O)Nc1cccc(Nc2nccc(-c3ccc(OC4CCOCC4)c(C#N)c3)n2)c1", "IC50", "pM", 1100],
  ["N#Cc1cc(-c2ccnc(Nc3cccc(CS(=O)(=O)NCCO)c3)n2)ccc1NC(=O)C1CC1", "IC50", "pM", 3000],
  ["COCCNC(=O)c1ccc(Nc2nccc(-c3ccc(OCC(C)C)c(C#N)c3)n2)cc1", "IC50", "pM", 600],
  ["N#Cc1cc(-c2ccnc(Nc3ccc(N4CCOCC4)cc3)n2)ccc1OC1CCN(C(=O)CO)CC1", "IC50", "pM", 400]
]}

* * *

Entries and their pIC50 values follow.
# testTarget: TBK1 (Homo sapiens)
# Construct: His-tag; made in house; host or cells: Sf9 insect cells
# Sequence (Q9UHD2 1-729): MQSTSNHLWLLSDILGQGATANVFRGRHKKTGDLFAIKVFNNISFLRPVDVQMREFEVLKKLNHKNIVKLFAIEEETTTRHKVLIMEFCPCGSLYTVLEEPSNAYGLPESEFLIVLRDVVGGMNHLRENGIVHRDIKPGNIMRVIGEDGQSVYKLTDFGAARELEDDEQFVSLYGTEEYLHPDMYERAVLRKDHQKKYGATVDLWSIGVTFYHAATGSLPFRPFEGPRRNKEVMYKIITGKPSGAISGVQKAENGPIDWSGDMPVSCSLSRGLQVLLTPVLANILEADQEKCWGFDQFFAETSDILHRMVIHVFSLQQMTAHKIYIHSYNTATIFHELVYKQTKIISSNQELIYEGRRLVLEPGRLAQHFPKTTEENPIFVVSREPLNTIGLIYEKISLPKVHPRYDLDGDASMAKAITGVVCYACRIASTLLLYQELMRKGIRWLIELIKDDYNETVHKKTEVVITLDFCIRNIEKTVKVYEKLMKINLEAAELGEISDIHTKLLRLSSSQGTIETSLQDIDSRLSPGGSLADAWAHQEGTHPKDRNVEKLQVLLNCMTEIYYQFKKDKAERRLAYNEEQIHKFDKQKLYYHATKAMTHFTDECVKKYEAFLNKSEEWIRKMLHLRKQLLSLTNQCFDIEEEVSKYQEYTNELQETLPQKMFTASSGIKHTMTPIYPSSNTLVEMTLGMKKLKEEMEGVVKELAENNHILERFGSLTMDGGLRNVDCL
# method: In-vitro TBK1 kinase assay ([γ33]ATP filter-plate)
# Assay type: biochemical
# condition: text bins; read-out: IC50 for inhibition of the kinase activity of TBK1
pIC50: −log10 of the molar value.
quantityName: pIC50

{"columns": ["compoundSmiles", "val"],
 "data": [
  ["Cc1nnsc1C(=O)Nc1ccc(-c2ccnc(Nc3ccc(N4CCOCC4)cc3)n2)cc1C#N", "> 8.00"],
  ["COc1cc(Nc2nccc(-c3ccc(OC4CCOCC4)c(C#N)c3)n2)ccc1C(=O)N1CCC1", "> 8.00"],
  ["COc1cc(Nc2nccc(-c3ccc(OC4CCOCC4)c(C#N)c3)n2)ccc1CO", "> 8.00"],
  ["N#Cc1cc(-c2ccnc(Nc3ccc(CN4CCN(CCO)CC4)cc3)n2)ccc1OC1CCOCC1", "> 8.00"],
  ["COc1cc(Nc2nccc(-c3ccc(OC4CCOCC4)c(C#N)c3)n2)ccc1N1CCOCC1", "> 8.00"],
  ["COc1ccc(-c2ccnc(Nc3ccc(NC(C)=O)cc3)n2)cc1C#N", "7.00 to 8.00"],
  ["N#Cc1cc(-c2ccnc(Nc3ccc(N4CCOCC4)cc3)n2)ccc1OCc1ccccc1", "7.00 to 8.00"],
  ["N#Cc1cc(-c2ccnc(Nc3cccc(NCCN4CCOCC4)c3)n2)ccc1OC1CCOCC1", "> 8.00"],
  ["CCN(CC)CCOCCOc1cc(Nc2nccc(-c3ccc(OC4CCOCC4)c(C#N)c3)n2)ccc1OC", "> 8.00"],
  ["COc1ccc(-c2ccnc(Nc3ccc(OC)c(OC)c3)n2)cc1C#N", "7.00 to 8.00"],
  ["COc1cc(Nc2nccc(-c3ccc(OC4CCOCC4)c(C#N)c3)n2)ccc1C(=O)NCCN(C)C", "> 8.00"],
  ["COc1ccc(Nc2nccc(-c3ccc(OC4CCOCC4)c(C#N)c3)n2)cc1OCC(N)=O", "> 8.00"],
  ["CCN(CC)CCN(CC)S(=O)(=O)Cc1ccc(Nc2nccc(-c3ccc(OC4CCOCC4)c(C#N)c3)n2)cc1", "7.00 to 8.00"],
  ["CC(C)COc1ccc(-c2ccnc(Nc3cccc(CS(=O)(=O)NCCO)c3)n2)cc1C#N", "> 8.00"],
  ["CC(C)Oc1ccc(-c2ccnc(Nc3ccc(N4CCN(C)CC4)cc3)n2)cc1C#N", "> 8.00"],
  ["COc1ccc(Nc2nccc(-c3ccc(OC4CCOCC4)c(C#N)c3)n2)cc1OCCCN1CCN(C(=O)C(C)C)CC1", "> 8.00"],
  ["CN1CCN(S(=O)(=O)c2ccc(Nc3nccc(-c4ccc(OC5CCOCC5)c(C#N)c4)n3)cc2)CC1", "> 8.00"],
  ["COc1cc(Nc2nccc(-c3ccc(OC4CCOCC4)c(C#N)c3)n2)ccc1C(=O)N1CCN(C(C)C)CC1", "> 8.00"],
  ["CC(C)COc1ccc(-c2ccnc(Nc3ccc(N4CCOCC4)cc3)n2)cc1C#N", "> 8.00"],
  ["CC(=O)N1CCN(C(=O)Nc2ccc(Nc3nccc(-c4ccc(OC5CCOCC5)c(C#N)c4)n3)cc2)CC1", "> 8.00"],
  ["N#Cc1cc(-c2ccnc(Nc3ccc(N4CCOCC4)cc3)n2)ccc1OC1CCOCC1", "> 8.00"]
]}

* * *

Entries and their pIC50 values follow.
# testTarget: IKKε (Homo sapiens)
# Construct: His-tag; made in house; host or cells: Sf9 insect cells
# method: In-vitro IKKε kinase assay ([γ33]ATP filter-plate)
# Assay type: biochemical
# condition: text bins; read-out: IC50 for inhibition of the kinase activity of IKKε
pIC50: −log10 of the molar value.
quantityName: pIC50

{"columns": ["molecule", "quantityName", "val"],
 "data": [
  ["N#Cc1cc(-c2ccnc(Nc3ccc(N4CCOCC4)cc3)n2)ccc1NC(=O)N1CCOCC1 [Example 52]", "pIC50", "6.30 to 7.30"],
  ["COc1ccc(Nc2nccc(-c3ccc(OC)c(C#N)c3)n2)cc1Cl [compound 327]", "pIC50", "7.30 to 8.30"],
  ["CNc1ccc(-c2ccnc(Nc3ccc(N4CCOCC4)cc3)n2)cc1C#N [Example 218]", "pIC50", "7.30 to 8.30"],
  ["CC(C)C(=O)Nc1ccc(-c2ccnc(Nc3ccc(CCNCCO)cc3)n2)cc1C#N [compound 455]", "pIC50", "7.30 to 8.30"],
  ["CCN(CC)CCc1ccc(Nc2nccc(-c3ccc(NC(=O)C(C)C)c(C#N)c3)n2)cc1 [compound 454]", "pIC50", "7.30 to 8.30"],
  ["C[C@H](O)C(=O)N1CCC(COc2ccc(-c3ccnc(Nc4ccc(N5CCOCC5)cc4)n3)cc2C#N)CC1 [Example 152]", "pIC50", "7.30 to 8.30"],
  ["N#Cc1cc(-c2ccnc(Nc3ccc(CS(=O)(=O)NCCO)cc3)n2)ccc1OC1CCOCC1 [compound 402]", "pIC50", "> 8.30"],
  ["COCCC(=O)Nc1cccc(Nc2nccc(-c3ccc(OC4CCOCC4)c(C#N)c3)n2)c1 [compound 538]", "pIC50", "> 8.30"],
  ["COc1cc(NC(=O)N2CC[C@@H](O)C2)cc(Nc2nccc(-c3ccc(OC)c(C#N)c3)n2)c1 [compound 378]", "pIC50", "7.30 to 8.30"],
  ["CC(C)C(=O)Nc1ccc(-c2ccnc(Nc3ccc(OCCCN4CCOCC4)cc3)n2)cc1C#N [compound 430]", "pIC50", "7.30 to 8.30"],
  ["COc1cc(Nc2nccc(-c3ccc(OC4CCOCC4)c(C#N)c3)n2)ccc1N1CCC(N2CCN(C)CC2)CC1 [compound 514]", "pIC50", "6.30 to 7.30"],
  ["N#Cc1cc(-c2ccnc(Nc3ccc(N4CCOCC4)cc3)n2)ccc1OC1CCOCC1 [Example 5]", "pIC50", "> 8.30"],
  ["COc1ccc(-c2ccnc(Nc3cc(CO)c(OC)c(OC)c3)n2)cc1C#N [Example 127]", "pIC50", "> 8.30"],
  ["CC(C)(O)C(=O)N1CCC(Oc2ccc(-c3ccnc(Nc4ccc(N5CCOCC5)cc4)n3)cc2C#N)CC1 [Example 74]", "pIC50", "6.30 to 7.30"],
  ["CN(C)C1CCN(c2ccc(-c3ccnc(Nc4ccc(N5CCOCC5)cc4)n3)cc2C#N)C1 (stereo not drawn) [Example 69]", "pIC50", "6.30 to 7.30"]
]}
